Test system: Staphylococcus aureus (NRS 384)
Test: microbe, parasite or virus in culture
Assay type: cell-based
Conditions: Staphylococcus aureus (NRS 384)
Non-standard residues stand in square brackets, D forms with d. PEG2000 = polyethylene glycol 2000, conjugated to the N-terminus; PEG4000 = polyethylene glycol 4000, conjugated to the C-terminus; PEG200 = polyethylene glycol 200, conjugated to the C-terminus; PEG500 = polyethylene glycol 500, conjugated to the C-terminus; 2Nal = N[C@@H](Cc1ccc2ccccc2c1)C(=O)O; PEG1000 = polyethylene glycol 1000
assayReadout: MIC against Staphylococcus aureus (NRS 384)
Give the figure together with its unit, number first.

Dear colleague, could you send me MIC against Staphylococcus aureus (NRS 384) for each of the items below? Thanks.
1. PEG2000-RKLLXRLKXRK-NH2 [LV-29] (PEG2000-RKLL[2Nal]RLK[2Nal]RK-NH2) [polyethylene glycol 2000 conjugated to N-terminal; X=3-(2-naphthyl)-alanine]
2. KFFRKLKKSVKKRAKKFFKKPRVIGVSIPF [Cbf-K16, reference compound]
3. Ac-RKLLXRLKXRK-PEG4000 [LV-30] (Ac-RKLL[2Nal]RLK[2Nal]RK-PEG4000) [polyethylene glycol 4000 conjugated to C-terminal; X=3-(2-naphthyl)-alanine]
4. Ac-RKLLXRLKXRK-PEG200 [LV-26] (Ac-RKLL[2Nal]RLK[2Nal]RK-PEG200) [polyethylene glycol 200 conjugated to C-terminal; X=3-(2-naphthyl)-alanine]
5. Ac-RKLLXRLKXRK-PEG200 [LV-56] (Ac-RKLL[2Nal]RLK[2Nal]RK-PEG200) [polyethylene glycol 200 conjugated to C-terminal; X=3-(2-naphthyl)-alanine]
6. PEG2000-RKLLXRLKXRK-NH2 [LV-59] (PEG2000-RKLL[2Nal]RLK[2Nal]RK-NH2) [polyethylene glycol 2000 conjugated to N-terminal; X=3-(2-naphthyl)-alanine]

Found:
["1 µg/mL", "32 µg/mL", "1 µg/mL", "1 µg/mL", "4 µg/mL", "4 µg/mL"]

Please go through the list and note MIC against Staphylococcus aureus (NRS 384) for each substance.
1. Ac-RKLLXRLKXRK-PEG500 [LV-27] (Ac-RKLL[2Nal]RLK[2Nal]RK-PEG500) [polyethylene glycol 500 conjugated to C-terminal; X=3-(2-naphthyl)-alanine]
2. Ac-RKLLXRLKXRK-PEG1000 [LV-58] (Ac-RKLL[2Nal]RLK[2Nal]RK-PEG1000) [polyethylene glycol 1000 conjugated to C-terminal; X=3-(2-naphthyl)-alanine]

Found:
["1 µg/mL", "4 µg/mL"]

* * *

Test system: Staphylococcus aureus (NRS 384)
Assay: microbe, parasite or virus in culture
Format: cell-based
Conditions: Staphylococcus aureus (NRS 384)
Non-standard residues stand in square brackets, D forms with d. PEG4000 = polyethylene glycol 4000, conjugated to the C-terminus; PEG500 = polyethylene glycol 500, conjugated to the C-terminus; 2Nal = N[C@@H](Cc1ccc2ccccc2c1)C(=O)O; PEG1000 = polyethylene glycol 1000
Exercise: for every item that follows, state its recorded MIC against Staphylococcus aureus (NRS 384).
Answers are plain numbers, in mg/L.

[
  {
    "substance": "Ac-RKLLXRLKXRK-PEG4000 [LV-60] (Ac-RKLL[2Nal]RLK[2Nal]RK-PEG4000) [polyethylene glycol 4000 conjugated to C-terminal; X=3-(2-naphthyl)-alanine]",
    "targetUnderTest": "Staphylococcus aureus (NRS 384)",
    "testValue": 8
  }
]

# per-item lookup of MIC against Staphylococcus aureus (NRS 384); items listed below
1. Ac-RKLLXRLKXRK-PEG1000 [LV-28] (Ac-RKLL[2Nal]RLK[2Nal]RK-PEG1000) [polyethylene glycol 1000 conjugated to C-terminal; X=3-(2-naphthyl)-alanine]
2. Ac-RKLLXRLKXRK-PEG500 [LV-57] (Ac-RKLL[2Nal]RLK[2Nal]RK-PEG500) [polyethylene glycol 500 conjugated to C-terminal; X=3-(2-naphthyl)-alanine]

Found:
1: 1; 2: 8
